Would you mind telling me the reported pIC50 of each entry?
System: Mahlavu
experiment: Cytotoxicity against human Mahlavu cells assessed as cell growth inhibition incubated for 72 hrs by SRB assay
Assay type: functional, cell-based
Just so you know, pIC50 here is -log10 of the concentration in molar units; reply with that number alone.

Value of measured pIC50 for the entry O=S(=O)(c1ccc(Br)cc1)N1CCN(c2ncnc3c2ncn3C2CCCC2)CC1 : 4.69

Value of measured pIC50 for the entry Clc1ccc(N2CCN(c3ncnc4c3ncn4C3CCCC3)CC2)cc1 : 5.40

Value of measured pIC50 for the entry c1ccc(N2CCN(c3ncnc4c3ncn4C3CCCC3)CC2)cc1 : 6.70

Value of measured pIC50 for the entry Clc1ccc(N2CCN(c3ncnc4c3ncn4C3CCCC3)CC2)cc1Cl : 7.00

Value of measured pIC50 for the entry CC(C)(C)c1ccc(-c2ncnc3c2ncn3C2CCCC2)cc1 : 5.40

Value of measured pIC50 for the entry Nc1nc(F)nc2c1ncn2[C@@H]1O[C@H](CO)[C@@H](O)[C@@H]1O : 4.85

Value of measured pIC50 for the entry COc1ccc(N2CCN(c3ncnc4c3ncn4C3CCCC3)CC2)cc1 : 6.22

Value of measured pIC50 for the entry COc1ccc(S(=O)(=O)N2CCN(c3ncnc4c3ncn4C3CCCC3)CC2)cc1 : 5.05

Value of measured pIC50 for the entry c1ccc(Oc2ccc(-c3ncnc4c3ncn4C3CCCC3)cc2)cc1 : 7.00

Value of measured pIC50 for the entry Fc1ccc(N2CCN(c3ncnc4c3ncn4C3CCCC3)CC2)cc1 : 5.15

Value of measured pIC50 for the entry Cc1ccc(N2CCN(c3ncnc4c3ncn4C3CCCC3)CC2)cc1 : 5.38

Value of measured pIC50 for the entry O=S(=O)(c1ccc(F)cc1)N1CCN(c2ncnc3c2ncn3C2CCCC2)CC1 : 4.94

---

Tested on: MCF7
experiment: Cytotoxicity against human MCF7 cells assessed as cell growth inhibition incubated for 72 hrs by SRB assay
Assay type: functional, cell-based
details: MCF7, 72 h
observationType: IC50 (µM)
Response body: numeric value in µM, unit text excluded.

FC(F)(F)Oc1ccc(-c2ncnc3c2ncn3C2CCCC2)cc1 tested on MCF7 gave IC50: 24

Clc1ccc(N2CCN(c3ncnc4c3ncn4C3CCCC3)CC2)cc1Cl tested on MCF7 gave IC50: 0.16

c1ccc(Oc2ccc(-c3ncnc4c3ncn4C3CCCC3)cc2)cc1 tested on MCF7 gave IC50: 2.8

O=S(=O)(c1ccc(Br)cc1)N1CCN(c2ncnc3c2ncn3C2CCCC2)CC1 tested on MCF7 gave IC50: 6.5

COc1ccc(N2CCN(c3ncnc4c3ncn4C3CCCC3)CC2)cc1 tested on MCF7 gave IC50: 1

COc1ccc(-c2ncnc3c2ncn3C2CCCC2)cc1 tested on MCF7 gave IC50: 19.5

---

Would you mind telling me the reported pIC50 of each entry?
Test system: MCF7
experiment: Cytotoxicity against human MCF7 cells assessed as cell growth inhibition incubated for 72 hrs by SRB assay
Assay type: functional, cell-based
details: MCF7, 72 h
Just so you know, pIC50 here is -log10 of the concentration in molar units; reply with that number alone.

Value of measured pIC50 for the entry Fc1ccc(N2CCN(c3ncnc4c3ncn4C3CCCC3)CC2)cc1 : 5.04

Value of measured pIC50 for the entry Cc1ccc(S(=O)(=O)N2CCN(c3ncnc4c3ncn4C3CCCC3)CC2)cc1 : 3.77

Value of measured pIC50 for the entry CC(C)(C)c1ccc(-c2ncnc3c2ncn3C2CCCC2)cc1 : 4.90

Value of measured pIC50 for the entry FC(F)(F)c1ccc(-c2ncnc3c2ncn3C2CCCC2)cc1 : 4.69

Value of measured pIC50 for the entry Fc1ccc(-c2ncnc3c2ncn3C2CCCC2)cc1 : 4.81

Value of measured pIC50 for the entry CC(C)c1ccc(S(=O)(=O)N2CCN(c3ncnc4c3ncn4C3CCCC3)CC2)cc1 : 4.76

Value of measured pIC50 for the entry Cc1ccc(N2CCN(c3ncnc4c3ncn4C3CCCC3)CC2)cc1 : 5.19

Value of measured pIC50 for the entry c1ccc(N2CCN(c3ncnc4c3ncn4C3CCCC3)CC2)cc1 : 7.00

Value of measured pIC50 for the entry Brc1ccc(-c2ncnc3c2ncn3C2CCCC2)cc1 : 4.25

Value of measured pIC50 for the entry Clc1ccc(N2CCN(c3ncnc4c3ncn4C3CCCC3)CC2)cc1 : 5.39

Value of measured pIC50 for the entry O=S(=O)(c1ccccc1)N1CCN(c2ncnc3c2ncn3C2CCCC2)CC1 : 4.95

Where these numbers come from: ChEMBL document CHEMBL5329223
